- tested_system: T1, mouse DLL4 extracellular domain (mouse, UniProt Q9JI71 27-532)
- T1 construct: extracellular domain; also called muDLL4 ECD; murine DLL4
- T1 sequence (Q9JI71 27-532): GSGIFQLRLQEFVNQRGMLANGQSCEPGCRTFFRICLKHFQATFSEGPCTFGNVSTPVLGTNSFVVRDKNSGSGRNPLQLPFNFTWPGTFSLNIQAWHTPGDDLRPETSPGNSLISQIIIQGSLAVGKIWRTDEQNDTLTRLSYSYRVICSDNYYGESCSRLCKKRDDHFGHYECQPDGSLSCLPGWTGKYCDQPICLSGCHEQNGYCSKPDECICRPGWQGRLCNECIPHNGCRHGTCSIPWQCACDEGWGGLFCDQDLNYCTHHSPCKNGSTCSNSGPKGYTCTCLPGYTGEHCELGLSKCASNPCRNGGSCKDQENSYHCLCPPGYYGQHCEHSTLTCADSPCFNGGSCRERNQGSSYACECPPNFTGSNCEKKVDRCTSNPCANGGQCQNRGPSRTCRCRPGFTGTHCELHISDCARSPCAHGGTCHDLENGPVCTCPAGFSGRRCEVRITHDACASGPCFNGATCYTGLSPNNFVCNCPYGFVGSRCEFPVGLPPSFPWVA
- protocol_details: competition ELISA vs Notch-1
measured_metric: pIC50
Units for pIC50: none; it is -log10 of a concentration expressed in mol/L.

Here is how some binders turned out for pIC50.
[
  {
    "binder": "h1A11.3 (antibody, V domains shown, humanized IgG; also called VH.1/VL.1b 1A11) VH: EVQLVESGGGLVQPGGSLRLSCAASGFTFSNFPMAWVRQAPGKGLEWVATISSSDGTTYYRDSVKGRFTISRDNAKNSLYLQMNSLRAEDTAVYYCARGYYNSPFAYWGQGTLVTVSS VL: DIQMTQSPSSLSASVGDRVTITCRASEDIYSNLAWYQQKPGKAPKLLIFDTNNLADGVPSRFSGSGSGTDFTLTISSLQPEDFATYYCQQYNNYPPTFGQGTKLEIKR",
    "pIC50": 9.05
  },
  {
    "binder": "h1A11.8 (antibody, V domains shown, humanized IgG; also called VH.1a/VL.2a 1A11) VH: EVQLVESGGGLVQPGGSLRLSCAASGFTFSNFPMAWVRQAPGKGLEWVATISSSDGTTYYRDSVKGRFTISRDNAKSSLYLQMNSLRAEDTAVYYCSRGYYNSPFAYWGQGTLVTVSS VL: EIVMTQSPATLSVSPGERATLSCRASEDIYSNLAWYQQKPGQSPRLLIFDTNNLADGVPARFSGSGSGTESTLTISSLQSEDFAVYFCQQYNNYPPTFGQGTKLEIKR",
    "pIC50": 9.05
  }
]

## Task Need pIC50, item h1A11.15 (antibody, V domains shown, humanized IgG; also called VH.2a/VL.1b 1A11) VH: EVQLVESGGGLVQPGGSLRLSCAASGFTFSNFPMAWVRQAPGKGLEWVATISSSDGTTYYRDSVKGRFTISRDNSKSTLYLQMNSLRAEDTAVYYCSRGYYNSPFAYWGQGTLVTVSS VL: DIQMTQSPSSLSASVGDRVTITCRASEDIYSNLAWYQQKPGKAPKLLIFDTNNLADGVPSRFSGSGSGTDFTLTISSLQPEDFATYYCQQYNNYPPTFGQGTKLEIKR
## Result 9.15

## Task Ok, now h1A11.2 (antibody, V domains shown, humanized IgG; also called VH.1/VL.1a 1A11) VH: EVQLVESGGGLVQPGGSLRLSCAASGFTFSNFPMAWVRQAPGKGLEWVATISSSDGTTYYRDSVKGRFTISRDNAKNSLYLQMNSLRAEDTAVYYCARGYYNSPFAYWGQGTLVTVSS VL: DIQMTQSPSSLSASVGDRVTITCRASEDIYSNLAWYQQKPGKSPKLLIFDTNNLADGVPSRFSGSGSGTDSTLTISSLQPEDFATYFCQQYNNYPPTFGQGTKLEIKR
## Result 9.05

## Task Ok, now 1A11 chimeric antibody (antibody, human IgG1, V domains shown, also called Chimera of 1A11; 1A11 (chimera)) VH: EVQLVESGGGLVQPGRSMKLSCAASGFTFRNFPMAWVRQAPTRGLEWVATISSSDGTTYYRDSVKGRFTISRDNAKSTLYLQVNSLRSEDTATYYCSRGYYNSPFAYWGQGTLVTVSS VL: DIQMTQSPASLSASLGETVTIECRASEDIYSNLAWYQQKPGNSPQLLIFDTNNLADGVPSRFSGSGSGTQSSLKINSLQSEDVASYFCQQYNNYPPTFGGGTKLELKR
## Result 8.46

## Task Ok, now h1A11.10 (antibody, V domains shown, humanized IgG; also called VH.1b/VL.1a 1A11) VH: EVQLVESGGGLVQPGGSLRLSCAASGFTFSNFPMAWVRQAPGKGLEWVATISSSDGTTYYRDSVKGRFTISRDNAKNSLYLQMNSLRAEDTAVYYCSRGYYNSPFAYWGQGTLVTVSS VL: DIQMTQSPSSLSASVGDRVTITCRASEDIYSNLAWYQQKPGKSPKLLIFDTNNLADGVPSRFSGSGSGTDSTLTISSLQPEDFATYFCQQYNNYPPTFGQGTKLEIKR
## Result 9.05

## Task Ok, now h1A11.16 (antibody, V domains shown, humanized IgG; also called VH.2a/VL.2a 1A11) VH: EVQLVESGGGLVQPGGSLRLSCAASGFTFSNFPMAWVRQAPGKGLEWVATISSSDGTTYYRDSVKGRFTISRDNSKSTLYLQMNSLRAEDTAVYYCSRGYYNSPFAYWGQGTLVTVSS VL: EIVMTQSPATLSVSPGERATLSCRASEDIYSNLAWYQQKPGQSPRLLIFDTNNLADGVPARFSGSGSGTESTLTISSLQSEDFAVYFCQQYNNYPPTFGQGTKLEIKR
## Result 9.15

## Task Ok, now h1A11.7 (antibody, V domains shown, humanized IgG; also called VH.1a/VL.1b 1A11) VH: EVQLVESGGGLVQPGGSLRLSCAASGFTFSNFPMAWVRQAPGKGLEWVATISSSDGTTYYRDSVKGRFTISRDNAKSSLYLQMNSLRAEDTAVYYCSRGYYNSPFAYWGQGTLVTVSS VL: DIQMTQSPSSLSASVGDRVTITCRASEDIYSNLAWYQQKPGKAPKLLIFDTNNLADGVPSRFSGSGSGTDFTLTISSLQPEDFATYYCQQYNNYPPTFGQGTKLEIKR
## Result 9.05

## Task Ok, now h1A11.12 (antibody, V domains shown, humanized IgG; also called VH.1b/VL.2a 1A11) VH: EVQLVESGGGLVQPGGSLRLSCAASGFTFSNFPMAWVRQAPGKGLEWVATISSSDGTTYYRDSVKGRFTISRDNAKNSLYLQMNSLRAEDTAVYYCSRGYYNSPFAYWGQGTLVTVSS VL: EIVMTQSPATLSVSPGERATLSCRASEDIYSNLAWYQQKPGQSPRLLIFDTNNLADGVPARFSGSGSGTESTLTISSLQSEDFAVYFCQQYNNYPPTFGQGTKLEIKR
## Result 9.05

## Task Ok, now h1A11.6 (antibody, V domains shown, humanized IgG; also called VH.1a/VL.1a 1A11) VH: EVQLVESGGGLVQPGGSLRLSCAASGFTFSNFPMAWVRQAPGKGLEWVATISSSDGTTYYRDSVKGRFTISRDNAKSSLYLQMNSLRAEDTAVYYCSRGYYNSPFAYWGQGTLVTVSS VL: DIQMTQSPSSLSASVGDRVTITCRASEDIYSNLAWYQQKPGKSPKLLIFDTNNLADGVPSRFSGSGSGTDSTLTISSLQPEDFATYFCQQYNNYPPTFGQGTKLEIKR
## Result 9.10
